method.notes: qHTS assay to identify small molecule agonists of the estrogen receptor beta (ER-beta) signaling pathway - cell viability counter screen (AID 1259380); also: nearly all actives have a fitted effect of over 30% in size
applied.conditions: ER-beta-bla HEK293T viability, CellTiter-Glo luminescence, 16 h; series mostly up to 92.4 µM
Results filed as inconclusive are left out. The source made the active and inactive calls. Calls follow the shape of the dose curve; as a rule, active = well fitted cell-killing curve with a large enough effect in the repeat runs; inconclusive = weak or mixed curves, or effect the other way; inactive = flat fitted curve, though single readings scatter.
Output constraint: value belongs to TRUE (active), FALSE (inactive)

Prompt line: Please indicate how the test categorized CC(=O)OCC(C)OC(C)=O (stereo not drawn) .
Response line: FALSE

Prompt line: Please indicate how the test categorized Clc1ccc(C(Cn2ccnc2)OCc2ccc(Sc3ccccc3)cc2)c(Cl)c1 (stereo not drawn) .
Response line: FALSE

Prompt line: Please indicate how the test categorized "O=c1[nH]sc2ccccc12" .
Response line: TRUE

Prompt line: Please indicate how the test categorized "O=C(OCC(COC(=O)c1ccccc1)(COC(=O)c1ccccc1)COC(=O)c1ccccc1)c1ccccc1" .
Response line: FALSE

Prompt line: Please indicate how the test categorized "Oc1ccc2c(c1)-c1ccccc1C2" .
Response line: FALSE

Prompt line: Please indicate how the test categorized "O=C1c2ccccc2Cc2ccccc21" .
Response line: FALSE

Prompt line: Please indicate how the test categorized "CCC(CN)=C(c1ccccc1)c1ccccc1" .
Response line: TRUE

Prompt line: Please indicate how the test categorized CCC1OCC(COc2ccc(Oc3ccccc3)cc2)O1 (stereo not drawn) .
Response line: FALSE

Prompt line: Please indicate how the test categorized "CCc1cc(Cc2cc(CC)cc(C(C)(C)C)c2O)c(O)c(C(C)(C)C)c1" .
Response line: TRUE

Prompt line: Please indicate how the test categorized "CCCC(c1cc(C(C)(C)C)c(O)cc1C)c1cc(C(C)(C)C)c(O)cc1C" .
Response line: TRUE

Prompt line: Please indicate how the test categorized "CCCCCCOC(=O)c1ccc(O)cc1" .
Response line: TRUE

Prompt line: Please indicate how the test categorized Cc1cccc(CN2CCN(C(c3ccccc3)c3ccc(Cl)cc3)CC2)c1 (stereo not drawn) .
Response line: FALSE

Prompt line: Please indicate how the test categorized CCCCC(CC)CN=C(N)NC(N)=NCCCCCCN=C(N)NC(N)=NCC(CC)CCCC (stereo not drawn) .
Response line: TRUE

Prompt line: Please indicate how the test categorized "CN(C)[C@@H]1C(=O)C(C(N)=O)=C(O)[C@@]2(O)C(=O)C3=C(O)c4c(O)cccc4C[C@H]3C[C@@H]12" .
Response line: FALSE

Prompt line: Please indicate how the test categorized "C/C(=C(/OCCOc1ccc(Cl)cc1)c1ccc(Cl)cc1Cl)n1ccnc1" .
Response line: TRUE

Prompt line: Please indicate how the test categorized "CN1CCN(CCC(=O)N2c3ccccc3Sc3ccc(C(F)(F)F)cc32)CC1" .
Response line: TRUE

Prompt line: Please indicate how the test categorized "Nc1ccc2cc(S(=O)(=O)O)cc(O)c2c1N=Nc1ccccc1C(F)(F)F" .
Response line: FALSE

----------
method.notes: qHTS assay to identify small molecule agonists of the hypoxia (HIF-1) signaling pathway (AID 1224846); as to activation: % is scaled to controls: 0 for no effect and ±100 for the full control effect
applied.conditions: HRE-bla ME-180 cells, beta-lactamase ratio, 17 h; series mostly up to 76.8 µM
Results filed as inconclusive are left out. Calls of active or inactive are those of the source. The call rests on the fitted dose curve; in most records, active means well fitted activation curve with a large enough effect in the signal ratio in the repeat runs (not every such curve was filed as active); inconclusive means weak or mixed curves; inactive means flat fitted curve, though single readings scatter; the % refers to the signal ratio.
Output constraint: value belongs to true (1) (active), false (0) (inactive)

Would you please look over these solved cases?
Prompt line: Please indicate how the test categorized "CN(C)CCCOC1(Cc2ccccc2)CCCCCC1" .
Response line: false (0)

Prompt line: Please indicate how the test categorized "C1CCCC1" .
Response line: false (0)

Prompt line: Please indicate how the test categorized "CCC1=C[C@@H]2CN(C1)Cc1c([nH]c3ccccc13)[C@@](C(=O)OC)(c1cc3c(cc1OC)N(C)[C@H]1[C@@](O)(C(=O)OC)[C@H](OC(C)=O)[C@]4(CC)C=CCN5CC[C@]31[C@@H]54)C2" .
Response line: false (0)

Prompt line: Please indicate how the test categorized "CCN(CC)CCNC(=O)c1c(C)[nH]c(/C=C2\C(=O)Nc3ccc(F)cc32)c1C" .
Response line: false (0)

New cases:
Prompt line: Please indicate how the test categorized "c1ccc(CSCc2ccccc2)cc1" .
Response line: false (0)

Prompt line: Please indicate how the test categorized "Cc1cc(=O)oc2cc(N(C)C)ccc12" .
Response line: true (1)

Prompt line: Please indicate how the test categorized "CC(=O)S[C@@H]1CC2=CC(=O)CC[C@]2(C)[C@H]2CC[C@@]3(C)[C@@H](CC[C@@]34CCC(=O)O4)[C@H]12" .
Response line: false (0)

Prompt line: Please indicate how the test categorized Cc1c(C)c2c(c(C)c1O)CCC(C)(COc1ccc(CC3SC(=O)NC3=O)cc1)O2 (configuration not stated) .
Response line: false (0)

Prompt line: Please indicate how the test categorized CCC(Cl)C(Cl)C(Cl)CC(Cl)C(Cl)C(C)Cl (configuration not stated) .
Response line: false (0)

Prompt line: Please indicate how the test categorized Cc1nc(-c2ccc3c(c2)CCN(CCC2CCC(NC(=O)/C=C/c4ccc(F)cc4)CC2)CC3)no1 (configuration not stated) .
Response line: false (0)

Prompt line: Please indicate how the test categorized "COC(=O)c1cc(Cl)ccc1OC" .
Response line: false (0)

Prompt line: Please indicate how the test categorized "Oc1ccc2cc(SSc3ccc4cc(O)ccc4c3)ccc2c1" .
Response line: false (0)
